Target of assay: T1, BCMA on BCMA-positive NCI-H929, ARP-1 and U266B1 cells (human, UniProt Q02223 1-184)
T1 sequence: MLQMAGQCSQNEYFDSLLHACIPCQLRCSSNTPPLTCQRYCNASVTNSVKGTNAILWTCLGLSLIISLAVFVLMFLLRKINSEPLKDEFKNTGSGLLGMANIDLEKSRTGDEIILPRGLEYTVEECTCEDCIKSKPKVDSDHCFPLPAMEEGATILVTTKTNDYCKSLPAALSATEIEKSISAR
Assay info: cell-based or functional assay
Consider the following binders; for each one, report its U266B1, SC239-conjugated 2° antibody cell killing, EC50.
Could you give me the number in nM? Just the number is fine.

So for 9A5 (antibody, V domains shown, chicken HybriFree-derived antibody; also called Antibody 42) VH: AVTLDESGGGLQTPGGAVSLVCKASGFSISDYGMGWMRQAPGKGLQYVARIDHDGRYTDYGAVVKGRATISRDNGQSTVRLQLNNLRAEDTGTYYCTRGGGAASIDTWGHGTEVIVSS VL: ALTQPSSVSANPGETVKITCSGGGNYVGGYYYGWYQQKAPGSALVTLIYNNNNRPSNIPSRFSGSTSGSTSTLTITGVRAEDEAVYFCGSFDSSTDAIFGAGTTLTVL , the logged U266B1, SC239-conjugated 2° antibody cell killing, EC50 turned out to be 0.29

So for 10G5 (antibody, V domains shown, chicken HybriFree-derived antibody; also called Antibody 31) VH: AVTLDESGGGLQTPGGVLSLVCKASGFTFSSFNMFWVRQAPGKGLEWVAYISNDGSSTSYGPAVKGRATISRDNGQSTVRLQLNNLRAEDTATYFCAKTTCIGSGGCIDTWGHGTEVIVSS VL: ALTQPSSVSANPGETVKITCSGGNYDYGWYQQKSPGSAPVTLIYYNNKRPSDIPSRFSGSKSGSTGTLTITGVQAEDEAIYYCANVDSTDDVFGAGTTLTVL , the logged U266B1, SC239-conjugated 2° antibody cell killing, EC50 turned out to be 1.9

So for 9H1 (antibody, V domains shown, chicken HybriFree-derived antibody; also called Antibody 44) VH: AVTLDESGGGLQTPGGALSLVCKGSGFTFSDYGMGWMRQAPGKGLQYVARINSAGSDTNYGSAVKGRATISRDDGQSTVRLQLSSLRAEDTGIYYCTRGGGGASIDGWGHGTEVIVSS VL: ALTQPSSVSANPGETVKITCSGGGSYYGSYYYGWYQQKSPGSAPVTLIYNNNNRPSDIPSRFSGSTSGSTGTLTITGVRAEDEAVYYCGSFDSSTDAIFGAGTTLTVL , the logged U266B1, SC239-conjugated 2° antibody cell killing, EC50 turned out to be 1.1

So for 9E12 (antibody, V domains shown, chicken HybriFree-derived antibody; also called Antibody 43) VH: AVTLDESGGGLQTPGGGLSLVCKASGFTFSDYGLGWMRQAPGKGLEYVARINSAGSGTYYGSAVDGRATISRDNGQSTVRLQLNNLRAEDTGTYYCTRGGGGASIDGWGHGTEVIVSS VL: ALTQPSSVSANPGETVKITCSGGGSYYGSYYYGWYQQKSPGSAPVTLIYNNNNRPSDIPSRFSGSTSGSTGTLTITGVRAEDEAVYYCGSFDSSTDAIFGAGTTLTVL , the logged U266B1, SC239-conjugated 2° antibody cell killing, EC50 turned out to be 1.4
